Molecular target: α4β2 nAChR (Rattus norvegicus, UniProt P09483+P12390)
Construct: crude synaptic membrane preparations from rat cerebral cortex, striatum and hippocampus; from tissue; host or cells: rat cerebral cortex, striatum and hippocampus (crude synaptic membranes, P2 fraction)
Sequence (P09483 31-630): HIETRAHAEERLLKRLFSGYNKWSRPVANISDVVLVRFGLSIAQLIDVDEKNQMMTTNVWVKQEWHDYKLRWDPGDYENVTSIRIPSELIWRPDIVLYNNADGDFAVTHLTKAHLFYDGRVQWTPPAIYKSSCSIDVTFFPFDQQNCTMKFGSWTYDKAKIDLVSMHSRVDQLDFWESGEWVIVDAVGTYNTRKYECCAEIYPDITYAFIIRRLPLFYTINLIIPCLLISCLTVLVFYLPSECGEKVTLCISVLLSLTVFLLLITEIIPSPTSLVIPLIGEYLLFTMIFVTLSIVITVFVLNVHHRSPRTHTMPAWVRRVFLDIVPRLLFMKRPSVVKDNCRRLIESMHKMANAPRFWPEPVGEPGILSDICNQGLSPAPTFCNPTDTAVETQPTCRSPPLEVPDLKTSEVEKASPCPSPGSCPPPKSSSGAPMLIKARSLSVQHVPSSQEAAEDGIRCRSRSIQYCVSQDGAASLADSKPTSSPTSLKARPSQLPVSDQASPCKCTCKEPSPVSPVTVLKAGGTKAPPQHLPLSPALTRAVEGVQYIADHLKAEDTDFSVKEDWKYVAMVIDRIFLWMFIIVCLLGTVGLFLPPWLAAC
Sequence (P12390 25-500): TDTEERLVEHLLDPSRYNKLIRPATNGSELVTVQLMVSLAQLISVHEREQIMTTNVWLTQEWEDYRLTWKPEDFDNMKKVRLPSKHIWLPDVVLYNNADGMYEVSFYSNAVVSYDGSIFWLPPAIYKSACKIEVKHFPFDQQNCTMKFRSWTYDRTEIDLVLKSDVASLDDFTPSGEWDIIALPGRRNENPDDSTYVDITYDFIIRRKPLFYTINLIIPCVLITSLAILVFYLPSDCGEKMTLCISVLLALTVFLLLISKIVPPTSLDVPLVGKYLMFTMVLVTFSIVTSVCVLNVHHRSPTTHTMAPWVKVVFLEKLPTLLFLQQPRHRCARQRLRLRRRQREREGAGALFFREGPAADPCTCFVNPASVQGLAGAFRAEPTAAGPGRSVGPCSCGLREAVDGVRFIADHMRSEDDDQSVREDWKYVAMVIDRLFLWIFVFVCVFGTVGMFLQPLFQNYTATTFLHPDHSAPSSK
Assay: Binding of 3H-cytisine to α4β2 nAChR, crude synaptic membranes
Conditions: 3H-cytisine; rat cerebral cortex, striatum and hippocampus membranes; IC50 from five concentrations; read-out: α4β2
readout: pIC50
As a rule, pIC50 stands for the negative log10 of the concentration, concentration in M.

Past entries and their recorded results:
| compound | pIC50 |
| --- | --- |
| c1cncc(OC2CCCNC2)c1 (stereo not drawn) | 6.69 |
| c1cncc(O[C@H]2CCNC2)c1 [Example 3, 3-(3-(S)-Pyrrolidinyloxy)-pyridine] | 6.35 |
| c1cncc(OC2CCNC2)c1 (stereo not drawn) | 6.68 |
| c1cncc(O[C@@H]2CCNC2)c1 [Example 4, 3-(3-(R)-Pyrrolidinyloxy)-pyridine] | 7.35 |

Prompt: Give the value of pIC50 reported for the following: N#Cc1ccc(-c2cc(O[C@@H]3CCNC3)cnc2Cl)cc1
Completion: 7.66

Prompt: Determine its reported pIC50: Clc1ncc(O[C@@H]2CCNC2)cc1Br
Completion: 7.03

Prompt: Annotate the compound COc1cccc(-c2cc(O[C@@H]3CCNC3)cnc2Cl)c1 with its measured pIC50.
Completion: 7.24

Prompt: Provide measured pIC50 value, entry: CN1CCC(Oc2cccnc2)C1 (stereo not drawn)
Completion: 7.04

Prompt: Please indicate pIC50 recorded for CN1CC[C@@H](Oc2cccnc2)C1
Completion: 6.26
